Measured Agonistic activity on T cells, IFNγ release, EC50 of individual entries
subjectOfTest: T1, human OX40 expressed on the cell surface (human, UniProt P43489 29-277)
T1 sequence (looked up): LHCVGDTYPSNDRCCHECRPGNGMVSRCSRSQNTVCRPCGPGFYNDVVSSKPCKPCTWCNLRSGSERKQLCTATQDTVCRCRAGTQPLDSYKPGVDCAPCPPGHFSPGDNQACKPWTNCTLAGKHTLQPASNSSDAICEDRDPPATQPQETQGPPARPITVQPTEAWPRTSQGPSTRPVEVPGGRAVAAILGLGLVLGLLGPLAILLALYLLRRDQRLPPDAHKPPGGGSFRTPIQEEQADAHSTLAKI
experimentNotes: cell-based or functional assay
measuredProperty: Agonistic activity on T cells, IFNγ release, EC50 (nM)

binder: Hu38E11-v4 (antibody, human IgG1, V domains shown) VH: QVQLVQSGAEVKKPGASVKVSCKASGYTFTSYWVDWVRQAPGQGLEWIGNIYPSDSETHYNQKFKDRVTMTVDTSTSTAYMELSSLRSEDSAVYYCARSYGYYGTWFAYWGQGTLVTVSS VL: DIVMTQSPDSLAVSLGERATINCRASESVDSSGNSFMHWYQQKPGQPPKLLIYRASNLESGIPDRFSGSGSGTDFTLTISSLQAEDVAVYYCQQSNEDPWTFGGGTKLEIK
measValue: 0.9
--
binder: Hu38E11-v1 (antibody, human IgG1, V domains shown, also called Hu38E11-vl) VH: QVQLVQSGAEVKKPGASVKVSCKASGYTFTSYWVDWVRQAPGQGLEWIGNIYPSDSETHYNQKFKDRVTMTVDTSTSTVYMELSSLRSEDTAVYYCARSYGYYGTWFAYWGQGTLVTVSS VL: DIVMTQSPDSLAVSLGERATINCRASESVDSSGNSFMHWYQQKPGQPPKLLIYRASNLESGIPDRFSGSGSGTDFTLTISSVQAEDVAVYYCQQSNEDPWTFGGGTKLEIK
measValue: 0.7
--
binder: OX40mAb24 (antibody, V domains shown) VH: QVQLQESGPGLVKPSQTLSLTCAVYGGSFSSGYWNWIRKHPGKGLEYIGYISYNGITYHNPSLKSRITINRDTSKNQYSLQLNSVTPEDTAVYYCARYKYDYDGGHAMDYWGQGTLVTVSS VL: DIQMTQSPSSLSASVGDRVTITCRASQDISNYLNWYQQKPGKAPKLLIYYTSKLHSGVPSRFSGSGSGTDYTLTISSLQPEDFATYYCQQGSALPWTFGQGTKVEIKR
measValue: 7.1
--
binder: Hu38E11-v2 (antibody, human IgG1, V domains shown) VH: QVQLVQSGAEVKKPGASVKVSCKASGYTFTSYWVDWVRQAPGQGLEWIGNIYPSDSETHYNQKFKDRVTMTVDTSTSTAYMELSSLRSEDSAVYYCARSYGYYGTWFAYWGQGTLVTVSS VL: DIVMTQSPDSLAVSLGERATINCRASESVDSSGNSFMHWYQQKPGQPPKLLIYRASNLESGVPDRFSGSGSGTDFTLTISSLQAEDVAVYYCQQSNEDPWTFGGGTKLEIK
measValue: 1
